# credit: patent US11202773B2

system: human intestine microsomes; test: Glucuronidation by human intestine microsomes; type: in vitro ADME
Readout Type: Glucuronidation rates by intestine microsomes (Mean) (pmol/mg/min)
Form entry: value (pmol/mg/min) — number only.

Task: Name the recorded Glucuronidation rates by intestine microsomes (Mean) for Cc1ccc(-c2cc(COc3ccc(O)cc3)nn2-c2ccc(S(N)(=O)=O)cc2)cc1 .
Output: 45

Task: # get_value(readout='Glucuronidation rates by intestine microsomes (Mean)', item= Cc1ccc(-c2cc(COc3ccccc3O)nn2-c2ccc(S(N)(=O)=O)cc2)cc1 )
Output: 2786

Task: Please look up its Glucuronidation rates by intestine microsomes (Mean): Cc1ccc(-c2cc(COc3ccc4c(=O)c(O)c(-c5ccccc5)oc4c3)nn2-c2ccc(S(N)(=O)=O)cc2)cc1
Output: 2134

Task: Name the recorded Glucuronidation rates by intestine microsomes (Mean) for Cc1ccc(-c2cc(COc3cccc(O)c3)nn2-c2ccc(S(N)(=O)=O)cc2)cc1 .
Output: 924
